meta.source: PubChem BioAssay AID2060506

Test system: 598228-144-R-J1-PDC complex spheroid viability;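 note: spheroids exposed to the agents for one week before reading; percent of vehicle DMSO control viability so 100% = untreated growth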
Assay: Anticancer human tumor 598228-144-R-J1-PDC patient-derived serous endometrial adenocarcinoma cell line growth inhibition [GQUAD]
Conditions: second compound 0.0316 µM; first compound 10 µM; hits give low values
MEASUREMENT LABEL: viability, T/C

Use these answered entries as a reference point.
CC(C)n1c(=O)n(C)c2cnc3cc(F)c(-c4ccc(OCCCN5CCCCC5)nc4)cc3c21 + CN(C)c1ccc(Nc2c3ccc(NC(=O)CCN4CCCC4)cc3nc3cc(NC(=O)CCN4CCCC4)ccc23)cc1 :: 49.7%
CCCS(=O)(=O)Nc1ccc(F)c(C(=O)c2c[nH]c3ncc(-c4ccc(Cl)cc4)cc23)c1F + Cc1[nH]c2ccc(F)cc2c1-c1nc2c3cccnc3c3ncccc3c2[nH]1 :: 39.2%
O=c1[nH]cc(F)c(=O)[nH]1 + Cc1[nH]c2ccc(F)cc2c1-c1nc2c3cccnc3c3ncccc3c2[nH]1 :: 81.4%
COc1ncnc(C2CC2)c1-c1ncc2cnn(Cc3ccc(-c4nc(C(F)(F)F)cn4C(C)C)cc3)c2n1 + Cc1[nH]c2ccc(F)cc2c1-c1nc2c3cccnc3c3ncccc3c2[nH]1 :: 112%

**Q:** Request: viability, T/C, test system 598228-144-R-J1-PDC complex spheroid viability, entry C=CC(=O)N1CCN(c2nc(=O)n(-c3c(C)ccnc3C(C)C)c3nc(-c4c(O)cccc4F)c(F)cc23)C(C)C1 (stereo unspecified) + Cc1cnc(CNC(=O)c2c(=O)c3ccc(N4CCCN(C)CC4)nc3n3c2sc2ccccc23)cn1;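 note: spheroids exposed to the agents for one week before reading; percent of vehicle DMSO control viability so 100% = untreated growth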
**A:** 82.9%

**Q:** Request: viability, T/C, test system 598228-144-R-J1-PDC complex spheroid viability, entry Nc1ccn(C2OC(CO)C(O)C2(F)F)c(=O)n1 (stereo unspecified) + CN(C)c1ccc(Nc2c3ccc(NC(=O)CCN4CCCC4)cc3nc3cc(NC(=O)CCN4CCCC4)ccc23)cc1;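 note: spheroids exposed to the agents for one week before reading; percent of vehicle DMSO control viability so 100% = untreated growth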
**A:** 37.5%
